Data provenance is BindingDB's records for doi:10.1021/jm0510934.

biological target: Growth hormone secretagogue receptor type 1 (Homo sapiens, UniProt Q92847); assay: Receptor Binding Studies and GHS-R Ca2+ Flux Assay; details: pH 7.4; 22 °C
Sequence (Q92847 whole entry): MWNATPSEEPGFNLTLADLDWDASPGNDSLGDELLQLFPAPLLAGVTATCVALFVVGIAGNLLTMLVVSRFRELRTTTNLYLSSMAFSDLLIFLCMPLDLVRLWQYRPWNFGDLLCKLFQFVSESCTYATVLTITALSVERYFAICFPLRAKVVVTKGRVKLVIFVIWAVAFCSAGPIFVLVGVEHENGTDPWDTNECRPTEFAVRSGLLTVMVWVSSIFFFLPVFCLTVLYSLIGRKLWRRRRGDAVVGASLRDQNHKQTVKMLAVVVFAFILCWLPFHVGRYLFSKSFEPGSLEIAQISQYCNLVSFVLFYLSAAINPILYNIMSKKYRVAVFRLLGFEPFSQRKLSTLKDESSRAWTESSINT
Hi there, I'd appreciate the recorded IC50 for every entry that follows.
Hi, when you answer, please include the unit after the number. Thanks!

>>> assay_value("CCc1nc(N)nc(N)c1-c1ccc(NCc2csc(Cl)c2)cc1")
"790 nM"
>>> assay_value("CCc1nc(N)nc(N)c1-c1ccc(NCc2ccc(C(C)O)cc2)cc1 (stereo not given)")
"110 nM"
>>> assay_value("Nc1nc(N)c(-c2ccc(NCc3ccnc(Cl)c3)cc2)c(COCc2ccccc2)n1")
"3.6 nM"
>>> assay_value("CCc1nc(N)nc(N)c1-c1ccc(NCc2ccnc(Cl)c2)cc1")
"220 nM"

Turning now to a further record.
The measured IC50 associated with CS(=O)(=O)c1ccc(CNc2ccc(-c3c(N)nc(N)nc3COCc3ccccc3)cc2)cc1 reads 7.2 nM

====

Biological target: Growth hormone secretagogue receptor type 1 (Homo sapiens)
Test: Receptor Binding Studies and GHS-R Ca2+ Flux Assay
Details: pH 7.4; 22 °C
Description: Specific binding was determined by incubation of membranes from GHS-R1a transfected CHO-K cells with 125I-His9-ghrelin in the presence of increasing concentrations of compounds to obtain IC50. Fluorescence emissions from 96 wells were measured simultaneously at excitation and emission wavelength of 488 and 520 nm, respectively. During this time, agonist responses in the absence of ghrelin, or the antagonist effects of compounds on ghrelin-stimulated calcium flux were recorded. […]
Hi there, I'd appreciate the recorded pIC50 for every entry that follows.
Answers are plain numbers, as −log10 of the molar value.

Go through the items and report each one's pIC50.
1. CCc1nc(N)nc(N)c1-c1ccc(NCc2ccc(S(=O)(=O)C(F)(F)F)cc2)cc1
2. CCc1nc(N)nc(N)c1-c1ccc(NCc2ccc(C(C)=O)cc2)cc1
3. CCc1nc(N)nc(N)c1-c1ccc(NCc2ccc(Cl)cc2)cc1
4. CCc1nc(N)nc(N)c1-c1ccc(NCc2ccc([N+](=O)[O-])cc2)cc1
5. N#Cc1ccc(CNc2ccc(-c3c(N)nc(N)nc3COCc3ccccc3)cc2)cc1

[out]
1. 6.16
2. 6.96
3. 5.86
4. 7.64
5. 7.72

====

Hi there, I'd appreciate the recorded pIC50 for every entry that follows.
target: Growth hormone secretagogue receptor type 1 (Homo sapiens, UniProt Q92847); test: Receptor Binding Studies and GHS-R Ca2+ Flux Assay
Answers are plain numbers, as −log10 of the molar value.

Example entries begin here.
>>> assay_value("Nc1nc(N)c(-c2ccc(NCc3cnc4ccccc4c3)cc2)c(COCc2ccccc2)n1")
6.11
>>> assay_value("Nc1nc(N)c(-c2ccc(NCc3ccc(Cl)s3)cc2)c(COCc2ccccc2)n1")
6.49
>>> assay_value("CCc1nc(N)nc(N)c1-c1ccc(CNc2ccc(S(C)(=O)=O)cc2)cc1")
6.92

Go through the items and report each one's pIC50.
1. CCc1nc(N)nc(N)c1-c1ccc(NCc2ccc(S(C)(=O)=O)cc2)c(Cl)c1
2. Nc1nc(N)c(-c2ccc(NCc3ccccc3)cc2)c(COCc2ccccc2)n1

[out]
1: 7.96; 2: 6.01

====

target: Growth hormone secretagogue receptor type 1 (Homo sapiens, UniProt Q92847); assay: Receptor Binding Studies and GHS-R Ca2+ Flux Assay
Please map values of IC50 to classes as shown: A: < 50 nM; B: ≥ 50 nM and < 200 nM; C: ≥ 200 nM

[in] Could you place Nc1nc(N)c(-c2ccc(CNc3ccc([N+](=O)[O-])cc3)cc2)c(COCc2ccccc2)n1 in its proper category? Many thanks.
[out] A

[in] Could you place Nc1nc(N)c(-c2ccc(NCc3ccc(Cl)cc3)cc2)c(CCc2ccccc2)n1 in its proper category? Many thanks.
[out] C

[in] Could you place CC(C)(C)CNc1ccc(-c2c(N)nc(N)nc2COCc2ccccc2)cc1 in its proper category? Many thanks.
[out] C

[in] Could you place N#Cc1ccc(COc2ccc(-c3c(N)nc(N)nc3COCc3ccccc3)cc2)cc1 [2,4-diaminopyrimidine derivative, 10b] in its proper category? Many thanks.
[out] C

====

target: Growth hormone secretagogue receptor type 1 (Homo sapiens, UniProt Q92847); assay: Receptor Binding Studies and GHS-R Ca2+ Flux Assay
ASSAY_READOUT: pIC50
One number for each entry, as −log10 of the molar value.

>>> assay_value("Nc1nc(N)c(-c2ccc(NCc3csc(Cl)c3)cc2)c(COCc2ccccc2)n1")
6.77

Go through the items and report each one's pIC50.
1. COc1ccc(CNc2ccc(-c3c(N)nc(N)nc3COCc3ccccc3)cc2)cc1
2. CCc1nc(N)nc(N)c1-c1ccc(NCc2ccc(S(C)(=O)=O)cc2)c(Br)c1
3. CCc1nc(N)nc(N)c1-c1ccc(N(C)Cc2ccc(S(C)(=O)=O)cc2)cc1
4. CS(=O)(=O)c1ccc(COc2ccc(-c3c(N)nc(N)nc3COCc3ccccc3)cc2)cc1
5. CCc1nc(N)nc(N)c1-c1ccc(CNc2ccc([N+](=O)[O-])cc2)cc1
6. Nc1nc(N)c(-c2ccc(NCc3ccncc3)cc2)c(COCc2ccccc2)n1

[out]
1: 7.05; 2: 7.38; 3: 7.49; 4: 7.32; 5: 6.72; 6: 7.07
